target: alanyl aminopeptidases (APN) (Homo sapiens, UniProt P15144); assay: Inhibition of alanyl aminopeptidase enzymatic activity, fluorogenic substrate (Ala)2-rhodamine 110; type: biochemical; settings: Table 4, unstarred values; read-out: IC50APN
Sequence (P15144 whole entry, species assumed): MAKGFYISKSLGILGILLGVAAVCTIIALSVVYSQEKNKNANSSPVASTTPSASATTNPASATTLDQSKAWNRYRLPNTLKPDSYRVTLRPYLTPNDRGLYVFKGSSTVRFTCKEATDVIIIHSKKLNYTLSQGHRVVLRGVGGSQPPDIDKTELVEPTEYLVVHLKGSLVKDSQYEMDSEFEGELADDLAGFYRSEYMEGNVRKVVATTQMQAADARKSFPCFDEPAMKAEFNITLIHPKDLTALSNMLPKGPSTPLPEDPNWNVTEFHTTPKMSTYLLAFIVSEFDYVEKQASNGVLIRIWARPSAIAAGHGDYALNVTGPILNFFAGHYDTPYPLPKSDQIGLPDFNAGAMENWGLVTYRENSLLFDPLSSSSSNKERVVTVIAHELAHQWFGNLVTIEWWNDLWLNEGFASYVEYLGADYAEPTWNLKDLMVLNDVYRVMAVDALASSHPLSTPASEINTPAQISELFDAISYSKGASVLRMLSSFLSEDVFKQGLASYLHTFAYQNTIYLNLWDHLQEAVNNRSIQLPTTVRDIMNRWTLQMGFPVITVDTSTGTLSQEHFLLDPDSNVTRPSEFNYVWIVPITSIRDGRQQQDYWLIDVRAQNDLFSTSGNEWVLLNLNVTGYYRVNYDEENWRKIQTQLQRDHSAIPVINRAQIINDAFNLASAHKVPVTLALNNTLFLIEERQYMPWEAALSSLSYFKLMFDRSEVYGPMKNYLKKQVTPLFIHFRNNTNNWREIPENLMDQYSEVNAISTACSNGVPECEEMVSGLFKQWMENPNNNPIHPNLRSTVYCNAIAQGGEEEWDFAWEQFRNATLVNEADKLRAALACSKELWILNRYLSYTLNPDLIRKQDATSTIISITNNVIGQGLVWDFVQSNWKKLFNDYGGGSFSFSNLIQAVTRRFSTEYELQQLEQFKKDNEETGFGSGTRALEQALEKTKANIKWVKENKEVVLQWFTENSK
Metric: IC50 (µM)
Please state the figure in µM; there is no need to write the unit.

Exercise: Please give the measured IC50 for this molecule: O=C(COc1ccc2ccccc2c1)N/N=C/c1ccco1
Solution: 13.9

Exercise: Please give the measured IC50 for this molecule: COc1ccc(OCC(=O)N/N=C/c2cc(Br)c(O)c(O)c2Br)c(Br)c1
Solution: 15

Exercise: Please give the measured IC50 for this molecule: COc1cccc(/C=N/NC(=O)c2ccn(C)n2)c1O
Solution: 142

Exercise: Please give the measured IC50 for this molecule: O=C(Cn1cnc2ccccc21)N/N=C/c1ccco1
Solution: 43.3

Exercise: Please give the measured IC50 for this molecule: Cc1ccc(/C=N/NC(=O)c2cccc(I)c2)o1
Solution: 30

Exercise: Please give the measured IC50 for this molecule: O=C(N/N=C\c1ccco1)c1ccc(S(=O)(=O)N2CCCCCC2)cc1
Solution: 8

Exercise: Please give the measured IC50 for this molecule: C/C(=N\NC(=O)c1cc(-c2ccccc2)n[nH]1)c1ccco1
Solution: 58.3

Exercise: Please give the measured IC50 for this molecule: CC(=O)Oc1ccc([N+](=O)[O-])cc1/C=N/NC(=O)COc1cc(C)ccc1C(C)C
Solution: 20.3

Exercise: Please give the measured IC50 for this molecule: Cc1cc(C(=O)N/N=C/c2ccc(C)o2)[nH]n1
Solution: 31.8

Exercise: Please give the measured IC50 for this molecule: O=C(N/N=C\c1ccco1)c1ccc(Br)cc1
Solution: 24.5

Exercise: Please give the measured IC50 for this molecule: O=C(Nc1ccccc1C(=O)N/N=C/c1ccco1)c1ccc(Cl)cc1Cl
Solution: 18.7

Exercise: Please give the measured IC50 for this molecule: Cc1cc(C(=O)N/N=C/c2ccco2)[nH]n1
Solution: 48.2

Exercise: Please give the measured IC50 for this molecule: Cc1ccccc1C(=O)Nc1ccc(C(=O)N/N=C/c2ccco2)cc1
Solution: 45.4

Exercise: Please give the measured IC50 for this molecule: Cc1ccc(/C=N/NC(=O)c2cn(-c3nonc3N)nn2)o1 [A4.008]
Solution: 6.9

Exercise: Please give the measured IC50 for this molecule: COc1ccc(C(=O)N/N=C/c2cc(Br)c(C)o2)cc1
Solution: 21.8

Exercise: Please give the measured IC50 for this molecule: Cc1cccc(C(=O)Nc2cccc(C(=O)N/N=C/c3ccc(C)o3)c2)c1
Solution: 36.2

Exercise: Please give the measured IC50 for this molecule: N/C(=N\N=C\c1ccco1)c1nonc1N
Solution: 14.6

Exercise: Please give the measured IC50 for this molecule: Cc1c(Cl)cccc1NC(=O)C(=O)N/N=C/c1c(OCc2ccccc2)ccc2ccccc12
Solution: 6.6

Exercise: Please give the measured IC50 for this molecule: Cc1ccc(/C=N/NC(=O)c2cccc(NC(=O)c3ccc(F)cc3)c2)o1
Solution: 9.8

Exercise: Please give the measured IC50 for this molecule: COc1cc(Br)cc(Br)c1OCC(=O)N/N=C/c1cc(O)c(O)c(Br)c1Br
Solution: 7.2

Exercise: Please give the measured IC50 for this molecule: O=C(N/N=C/c1cc([N+](=O)[O-])ccc1O)c1ccc(O)cc1O
Solution: 20.2

====

target: alanyl aminopeptidases (APN) (Homo sapiens, UniProt P15144); assay: Inhibition of alanyl aminopeptidase enzymatic activity, fluorogenic substrate (Ala)2-rhodamine 110; format: biochemical; details: Table 12; read-out: IC50APN
Assignment: determine reported pIC50 for the given molecules.
The quantity pIC50 is defined as the negative base-10 logarithm of the molar concentration.

Exercise: Missing value: pIC50, alanyl aminopeptidases (APN) (Homo sapiens, UniProt P15144), entry Cc1ccccc1NC(=O)C1C(c2cccs2)C(C#N)=C(SCC(=O)Nc2ccc(Br)cc2)NC1(C)O (stereo not drawn) [A12.054] . Fill in?
Solution: 4.47

Exercise: Missing value: pIC50, alanyl aminopeptidases (APN) (Homo sapiens, UniProt P15144), entry NCC(O)CNCCc1ccccc1 (stereo not drawn) [A12.039] . Fill in?
Solution: 4.67

Exercise: Missing value: pIC50, alanyl aminopeptidases (APN) (Homo sapiens, UniProt P15144), entry O=C(CCCCCN1C(=O)c2cccc3cccc(c23)C1=O)NO [A12.028] . Fill in?
Solution: 4.85

Exercise: Missing value: pIC50, alanyl aminopeptidases (APN) (Homo sapiens, UniProt P15144), entry COc1c(OCC(O)C(C)(C)O)ccc2c1N=C1OC=CC1C2OC (stereo not drawn) [A12.072] . Fill in?
Solution: 3.93

Exercise: Missing value: pIC50, alanyl aminopeptidases (APN) (Homo sapiens, UniProt P15144), entry CCOc1ccc(CC(=O)NO)cc1 [A12.013] . Fill in?
Solution: 5.12

Exercise: Missing value: pIC50, alanyl aminopeptidases (APN) (Homo sapiens, UniProt P15144), entry CCCOC(=O)c1cc(-c2ccc(/C=C3\C(=O)N(CCCO)C(=O)C(C#N)=C3C)o2)ccc1Cl [A12.022] . Fill in?
Solution: 4.62

Exercise: Missing value: pIC50, alanyl aminopeptidases (APN) (Homo sapiens, UniProt P15144), entry CN(C)CCCN1CCN(c2nc(N(C)CC(=O)O)c3ncn(Cc4ccc(C(F)(F)F)cc4)c3n2)CC1 [A12.042] . Fill in?
Solution: 4.64

Exercise: Missing value: pIC50, alanyl aminopeptidases (APN) (Homo sapiens, UniProt P15144), entry O=C(CS(=O)(=O)c1ccc(Cl)cc1)NO [A12.021] . Fill in?
Solution: 4.94

Exercise: Missing value: pIC50, alanyl aminopeptidases (APN) (Homo sapiens, UniProt P15144), entry COc1ccc(C(OCCC(=O)NO)c2ccccc2)cc1 (stereo not drawn) [A12.053] . Fill in?
Solution: 4.48

Exercise: Missing value: pIC50, alanyl aminopeptidases (APN) (Homo sapiens, UniProt P15144), entry Cc1ccc(C(OCCC(=O)NO)c2ccc(C)cc2)cc1 [A12.029] . Fill in?
Solution: 4.85

Exercise: Missing value: pIC50, alanyl aminopeptidases (APN) (Homo sapiens, UniProt P15144), entry N#C/C(=C\c1ccc(N2Cc3ccccc3C2)cc1)C(=O)NCC1CCCO1 (stereo not drawn) [A12.047] . Fill in?
Solution: 4.55

Exercise: Missing value: pIC50, alanyl aminopeptidases (APN) (Homo sapiens, UniProt P15144), entry O=C(O)SCCC1NC(=S)N(c2ccccc2)C1=O (stereo not drawn) [A12.024] . Fill in?
Solution: 4.92

Exercise: Missing value: pIC50, alanyl aminopeptidases (APN) (Homo sapiens, UniProt P15144), entry CSCCC1NC(=S)N(Cc2ccccc2)C1=O (stereo not drawn) [A12.027] . Fill in?
Solution: 4.85

Exercise: Missing value: pIC50, alanyl aminopeptidases (APN) (Homo sapiens, UniProt P15144), entry CC1=C(C#N)C(=O)N(CC(C)O)C(=O)/C1=C/c1ccc(-c2ccc(Br)cc2)o1 (stereo not drawn) [A12.058] . Fill in?
Solution: 4.33

Exercise: Missing value: pIC50, alanyl aminopeptidases (APN) (Homo sapiens, UniProt P15144), entry CCOC(=O)C(NC(=O)c1cccc(Cl)c1)(Nc1ccc(OC)cc1OC)C(F)(F)F (stereo not drawn) [A12.040] . Fill in?
Solution: 4.66

Exercise: Missing value: pIC50, alanyl aminopeptidases (APN) (Homo sapiens, UniProt P15144), entry O=C(ON1C(=O)CCC1=O)C1CCC(=O)N1C(=O)OCc1ccccc1 (stereo not drawn) [A12.015] . Fill in?
Solution: 5.12

Exercise: Missing value: pIC50, alanyl aminopeptidases (APN) (Homo sapiens, UniProt P15144), entry CCOC(=O)c1ccc(-c2ccc(/C=C3\C(=O)N(CCO)C(=O)C(C#N)=C3C)o2)cc1 [A12.004] . Fill in?
Solution: 5.57

Exercise: Missing value: pIC50, alanyl aminopeptidases (APN) (Homo sapiens, UniProt P15144), entry O=C(CCOC(c1ccccc1)c1ccc(Br)cc1)NO (stereo not drawn) [A12.008] . Fill in?
Solution: 5.20

====

molecular target: UniProt P15144; experiment: Inhibition of alanyl aminopeptidase enzymatic activity, fluorogenic substrate (Ala)2-rhodamine 110; type: biochemical; settings: Table 10; read-out: IC50APN
Assignment: determine reported IC50 for the given compounds.
Please state the figure in µM; there is no need to write the unit.

Exercise: Please give the measured IC50 for this compound: Cc1ccc(C(=O)N/C(=C\c2ccco2)C(=O)N2CC3CC(C2)c2cccc(=O)n2C3)cc1 (centres unmarked)
Solution: 11

Exercise: Please give the measured IC50 for this compound: CC1CC(=O)N(C(=O)CCBr)c2ccc([N+](=O)[O-])cc2N1C(=O)CCBr (centres unmarked)
Solution: 99.8

Exercise: Please give the measured IC50 for this compound: O=C(N/N=C\c1ccco1)c1ccc(S(=O)(=O)N2CCCCCC2)cc1
Solution: 8

Exercise: Please give the measured IC50 for this compound: Brc1cc2c(cc1Br)OCCOCCOCCOCCOCCO2
Solution: 0.7

Exercise: Please give the measured IC50 for this compound: Cc1ccc(C(=O)N/C(=C\c2ccco2)C(=O)N2CCCN(C)CC2)cc1C
Solution: 32.1

Exercise: Please give the measured IC50 for this compound: Cc1ccc(C(=O)N/C(=C\c2ccco2)C(=O)N2CC3CC(C2)c2cccc(=O)n2C3)cc1C (centres unmarked)
Solution: 11.8

Exercise: Please give the measured IC50 for this compound: COc1ccc(Cl)cc1C(=O)N/C(=C/c1ccco1)C(=O)N1CC2CC(C1)c1cccc(=O)n1C2 (centres unmarked)
Solution: 8.1

Exercise: Please give the measured IC50 for this compound: C/C(=N/O)c1ccc2c(c1)OCCOCCOc1cc(/C(C)=N\O)ccc1OCCOCCO2
Solution: 8.6
